pIC50 values, listed per item
Biological target: SARS-CoV-2 helicase (nsp13) (Severe acute respiratory syndrome coronavirus 2, UniProt P0DTD1)
Test: biochemical
Type: biochemical
Conditions: read-out: DTT Helicase IC50
// pIC50: -log10(molar conc.)

>>> result_value("OC[C@H]1O[C@H]([S-])[C@H](O)[C@@H](O)[C@@H]1O.[Au+]")
4.98

# next compound below
Give the reported pIC50 for this compound. CC1(C)C(/C=C/C=C/C=C/C=C2\N(CCCCS(=O)(=O)O)c3ccc4ccccc4c3C2(C)C)=[N+](CCCCS(=O)(=O)[O-])c2ccc3ccccc3c21
5.41

====

Target: SARS-CoV-2 helicase (nsp13) (Severe acute respiratory syndrome coronavirus 2, UniProt P0DTD1)
Test: biochemical
Format: biochemical
Conditions: read-out: DTT Helicase unwinding inhibition [%] 2.5 µM triplicates
inhibition at 2.5 µM values, listed per item
Quick reminder: number only, in %, skip the unit.

Some compounds with known inhibition at 2.5 µM results, for comparison:
>>> result_value("O=C(c1cc(O)c(O)c(O)c1)c1ccc(O)c(O)c1O")
99.9
>>> result_value("Cc1ccc(C(=O)Nc2ccc(S(=O)(=O)O)c3cc(S(=O)(=O)O)cc(S(=O)(=O)O)c23)cc1NC(=O)c1cccc(NC(=O)Nc2cccc(C(=O)Nc3cc(C(=O)Nc4ccc(S(=O)(=O)O)c5cc(S(=O)(=O)O)cc(S(=O)(=O)O)c45)ccc3C)c2)c1 [suramin hexasodium]")
53.1
>>> result_value("O=C(O[C@@H]1Cc2c(O)cc(O)cc2O[C@@H]1c1cc(O)c(O)c(O)c1)c1cc(O)c(O)c(O)c1 [(−)-epigallocatechin gallate]")
73.5
>>> result_value("CO[C@H](C(=O)[C@@H](O)[C@@H](C)O)[C@@H]1Cc2cc3cc(O[C@H]4C[C@@H](O[C@H]5C[C@@H](O)[C@H](O)[C@@H](C)O5)[C@H](O)[C@@H](C)O4)c(C)c(O)c3c(O)c2C(=O)[C@H]1O[C@H]1C[C@@H](O[C@H]2C[C@@H](O[C@H]3C[C@](C)(O)[C@H](O)[C@@H](C)O3)[C@@H](O)[C@@H](C)O2)[C@H](O)[C@@H](C)O1")
72

Give the reported inhibition at 2.5 µM for this compound. O=c1c(O)c(-c2cc(O)c(O)c(O)c2)oc2cc(O)cc(O)c12
22.1

====

Target: SARS-CoV-2 helicase (Severe acute respiratory syndrome coronavirus 2, UniProt P0DTD1)
Type: binding
property: effect on helicase Tm

>>> result_value("O=C(c1cc(O)c(O)c(O)c1)c1ccc(O)c(O)c1O")
"decrease in Tm"
>>> result_value("Cc1ccc(C(=O)Nc2ccc(S(=O)(=O)O)c3cc(S(=O)(=O)O)cc(S(=O)(=O)O)c23)cc1NC(=O)c1cccc(NC(=O)Nc2cccc(C(=O)Nc3cc(C(=O)Nc4ccc(S(=O)(=O)O)c5cc(S(=O)(=O)O)cc(S(=O)(=O)O)c45)ccc3C)c2)c1 [suramin hexasodium]")
"decrease in Tm"

====

RdRp Inhibition [%] 20 µM (PS Inhibition RdRp [%]) values, listed per item
Biological target: SARS-CoV-2 RdRp nsp12/7/8 complex (Severe acute respiratory syndrome coronavirus 2, UniProt P0DTD1)
Experiment: biochemical
Format: biochemical
Quick reminder: number only, in %, skip the unit.

Give the reported RdRp Inhibition [%] 20 µM (PS Inhibition RdRp [%]) for this compound. O=C(O[C@@H]1Cc2c(O)cc(O)cc2O[C@@H]1c1cc(O)c(O)c(O)c1)c1cc(O)c(O)c(O)c1 [(−)-epigallocatechin gallate]
85.49

Give the reported RdRp Inhibition [%] 20 µM (PS Inhibition RdRp [%]) for this compound. N#C/C(=C\c1ccc(O)c(O)c1)C(=O)OCCc1cccs1
97.86

Give the reported RdRp Inhibition [%] 20 µM (PS Inhibition RdRp [%]) for this compound. Cc1ccc(C(=O)Nc2ccc(S(=O)(=O)O)c3cc(S(=O)(=O)O)cc(S(=O)(=O)O)c23)cc1NC(=O)c1cccc(NC(=O)Nc2cccc(C(=O)Nc3cc(C(=O)Nc4ccc(S(=O)(=O)O)c5cc(S(=O)(=O)O)cc(S(=O)(=O)O)c45)ccc3C)c2)c1 [suramin hexasodium]
98.49

Give the reported RdRp Inhibition [%] 20 µM (PS Inhibition RdRp [%]) for this compound. O=C(Nc1ccc2c(O)cc(S(=O)(=O)[O-])cc2c1)Nc1ccc2c(O)cc(S(=O)(=O)[O-])cc2c1.[Na+].[Na+]
90.5

Give the reported RdRp Inhibition [%] 20 µM (PS Inhibition RdRp [%]) for this compound. O=C1OC2(c3cc(I)c(O)c(I)c3Oc3c2cc(I)c(O)c3I)c2c(Cl)c(Cl)c(Cl)c(Cl)c21
99.44

Give the reported RdRp Inhibition [%] 20 µM (PS Inhibition RdRp [%]) for this compound. O=C(O)c1ccccc1Nc1ccc(CCc2ccc(Cl)c(Cl)c2)cc1
81.81

Give the reported RdRp Inhibition [%] 20 µM (PS Inhibition RdRp [%]) for this compound. CC1(C)C(/C=C/C=C/C=C/C=C2\N(CCCCS(=O)(=O)O)c3ccc4ccccc4c3C2(C)C)=[N+](CCCCS(=O)(=O)[O-])c2ccc3ccccc3c21
4.44

Give the reported RdRp Inhibition [%] 20 µM (PS Inhibition RdRp [%]) for this compound. CC(C)c1ccccc1Cc1cc(C(=O)Nc2ccc(S(=O)(=O)c3ccccc3C(C)(C)C)cc2)c(O)c(O)c1O
89.4

Give the reported RdRp Inhibition [%] 20 µM (PS Inhibition RdRp [%]) for this compound. O=c1c(O)c(-c2ccc(O)cc2O)oc2cc(O)cc(O)c12 [morin hydrate (aurantica), morin hydrate]
95.67

Give the reported RdRp Inhibition [%] 20 µM (PS Inhibition RdRp [%]) for this compound. OC[C@H]1O[C@H]([S-])[C@H](O)[C@@H](O)[C@@H]1O.[Au+]
4.77
